Cited source: PubChem BioAssay

experiment: inhibitors of poly I:C-induced TLR3 signaling, primary screen, cell-based, poly I:C stimulus, luciferase, 10K MLSCN set (AID 602277); conditions: HEK293-TLR3 RL24 IRF3 luciferase reporter, at 10 µM, stronger effect = higher value
I would appreciate it if you labelled entries rule met when inhibition is 20% or higher, otherwise rule not met.

Field: example entries. Status: answers known.
[
  {
    "molecule": "O=C(CN(c1ccc(F)cc1)S(=O)(=O)c1ccc2c(c1)OCCO2)Nc1ccc2c(c1)OCO2",
    "class": "rule not met"
  },
  {
    "molecule": "CC(=O)N(C(C)=O)c1ncc2c([nH]c3ccccc32)c1C#N",
    "class": "rule not met"
  },
  {
    "molecule": "CC(NC(=O)c1noc2c1CCCCC2)c1ccccc1 (stereo not drawn)",
    "class": "rule not met"
  }
]

Q: Please indicate if the recorded inhibition for Cc1nc(SCC(=O)CC(=O)OC(C)C)c(C#N)c(C)c1C meets or exceeds 20%.
Ans: rule not met

Q: Please indicate if the recorded inhibition for O=C(O)CCc1ccc(-c2cccs2)o1 meets or exceeds 20%.
Ans: rule met

Q: Please indicate if the recorded inhibition for O=C(c1ccc(CSCc2ccccc2F)o1)N1CCN(c2ccc(N3CCOCC3)nn2)CC1 meets or exceeds 20%.
Ans: rule not met

Q: Please indicate if the recorded inhibition for CCCN1CCC(NC(=O)Nc2ccc(OC)c(OC)c2)CC1 meets or exceeds 20%.
Ans: rule met

Q: Please indicate if the recorded inhibition for Cc1nn(C(=O)c2cc3sccc3[nH]2)c(C)c1C meets or exceeds 20%.
Ans: rule not met

Q: Please indicate if the recorded inhibition for CSc1ccccc1NC(=O)c1cnc2n(c1=O)CCS2 meets or exceeds 20%.
Ans: rule not met

Q: Please indicate if the recorded inhibition for COc1ccc(OC)c(C2C(C(=O)Nc3ccc(F)cc3)=C(C)Nc3nc(CCCO)nn32)c1 (stereo not drawn) meets or exceeds 20%.
Ans: rule not met

Q: Please indicate if the recorded inhibition for CN(CCc1ccccn1)C(=O)CCNC(=O)Cn1cnc2ccccc2c1=O meets or exceeds 20%.
Ans: rule not met

Q: Please indicate if the recorded inhibition for COc1ccc(C2CC(c3ccc(Cl)cc3Cl)Nc3nc(N)nn32)cc1 (stereo not drawn) meets or exceeds 20%.
Ans: rule met

Q: Please indicate if the recorded inhibition for Cn1c(Cl)nc2ccccc21 meets or exceeds 20%.
Ans: rule met

###

test: inhibitors of E-selectin induction by TNFa, primary screen, imaging, HUVEC, immunofluorescence, MLSMR starter and 10KST1 sets (AID 487); conditions: HUVEC TNFalpha-induced E-selectin immunofluorescence imaging, at 2 µM; stronger effect = higher value;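 as to inhibition: signal is fraction of cell area covered by stained E-selectin grains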
Entries and their inhibition values follow.
Write the answer as a number in %, unit excluded.

Reported inhibition of Cc1sc(-n2c(C)cc(/C=N/n3cnnc3)c2C)c(C#N)c1C : 29.3

Reported inhibition of Cc1ccc(-c2nc3ncccc3o2)cc1NC(=O)c1ccco1 : -107

Reported inhibition of Cc1ccccc1-n1c(=O)cc(NCc2ccc3c(c2)OCO3)[nH]c1=O : -155

Reported inhibition of CCCCCOC(=O)C(C)c1c(C)[nH]c(=S)[nH]c1=O (stereo unspecified) : -25.9

Reported inhibition of Cn1c(NCC(O)c2ccccc2)nc2c1c(=O)n(Cc1ccc(Cl)cc1)c(=O)n2C (stereo unspecified) : -18

Reported inhibition of O=C(Nc1cccnc1)c1ccc2c(c1)OCO2 : -9.7

Reported inhibition of CC(C)c1ccc(O)c(N)c1 : -16.4

Reported inhibition of CS(=O)(=O)N(CC(=O)NCc1ccncc1)Cc1ccc(Cl)cc1 : -83.3

Reported inhibition of Cc1cc(C(=O)NCc2cccnc2)n(-c2ccccc2)n1 : -82.8

Reported inhibition of O=C(O)C1CC=CCC1C(=O)Nc1cc(Cl)ccc1Cl (stereo unspecified) : 5.3

Reported inhibition of O=C(c1ccccc1Oc1nnnn1-c1ccccc1)N1CCOCC1 : -73.9

Reported inhibition of Cc1ccccc1N1C(=O)C2ON(c3ccccc3)C(c3cccnc3)C2C1=O (stereo unspecified) : 20.1

Reported inhibition of CCCCCC1CC(CC(=O)O)C(=O)O1 (stereo unspecified) : -70.3

Reported inhibition of CC(=O)Nc1ccc(OC(=O)CC2SC(=O)NC2=O)cc1 (stereo unspecified) : -32.3

Reported inhibition of CCCn1c(SCC#N)nc2c(c1=O)C1(CCCC1)Cc1ccccc1-2 : -10.8

Reported inhibition of CC(C)=CC(=O)N1CCCc2ccccc21 : 3.3

Reported inhibition of COc1ccc(C2CC(C(F)(F)F)n3ncc(C(=O)NCc4cccnc4)c3N2)cc1OC (stereo unspecified) : 8

Reported inhibition of Cc1cc(=O)oc2c(CN3CCC(C)CC3)c(O)c(Cl)cc12 : -12

Reported inhibition of Cc1ccc(CCNC(=O)C2CCC(=O)N2C2CCCC2)cc1 (stereo unspecified) : 16.9

Reported inhibition of Cc1cc(OCC(=O)Nn2cnnc2)ccc1Br : -72.3

Reported inhibition of Cc1cccc(C)c1OCC(=O)Nc1cccc(-c2nnc(-c3ccccc3)o2)c1 : 27.8

###

test: inhibitors of TNFa-induced NFkB p65 translocation, primary screen, imaging, HUVEC, MLSMR starter and 10KST1 sets (AID 438); conditions: HUVEC TNFa-induced p65 nuclear translocation; at 2 µM, stronger effect = higher value, 0% TNFa-plus-vehicle, 100% no-TNFa wells;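 also: compound added about 3h40 before a 20 min TNFalpha stimulation; signal is the nuclear over cytoplasmic p65 intensity ratio per well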
attribute measured: inhibition (%)
Write the answer as a number in %, unit excluded.

Answered cases to consult:
[
  {
    "compound": "CCN(CC)S(=O)(=O)c1ccc(NC2CCCc3ccccc32)nc1 (configuration not stated)",
    "reported": 7.1
  },
  {
    "compound": "Cc1cccn2c(=O)c(/C=C(\\C#N)S(=O)(=O)c3ccccc3)c(N3CCN(C)CC3)nc12",
    "reported": -9.2
  },
  {
    "compound": "COc1ccc(N2C(=O)CCC(C(=O)N3CCCCC3)C2c2ccc(OC)c(OC)c2)cc1 (configuration not stated)",
    "reported": -1.9
  },
  {
    "compound": "COc1ccc(-c2nnc(SCCC(=O)O)n2-c2ccccc2)cc1",
    "reported": 2.5
  }
]

Reported inhibition of O=C1C(=O)N(CCCn2ccnc2)C(c2ccccn2)/C1=C(/O)c1ccccc1 (configuration not stated) : -12.2

Reported inhibition of C=CCOc1ccc(/C(O)=C2/C(=O)C(=O)N(CCCN3CCOCC3)C2c2ccccc2)cc1 (configuration not stated) : -4.5

Reported inhibition of Cc1cc(O)ccc1-c1cnc2ccccc2n1 : 2

###

Entries and their fluorescence slope values follow.
target: Voltage-gated potassium channel subunit beta-2 (Rattus norvegicus) (UniProt P62483); test: KvBeta enzyme negative modulators, primary screen, biochemical, NADPH fluorescence (AID 622); details: recombinant KvBeta, 4-cyanobenzaldehyde reduction, at 10 µM, stronger effect = higher value;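 also: slope of raw intensity against log time taken from 70 to 1610 s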
Sequence (P62483 whole entry, looked up): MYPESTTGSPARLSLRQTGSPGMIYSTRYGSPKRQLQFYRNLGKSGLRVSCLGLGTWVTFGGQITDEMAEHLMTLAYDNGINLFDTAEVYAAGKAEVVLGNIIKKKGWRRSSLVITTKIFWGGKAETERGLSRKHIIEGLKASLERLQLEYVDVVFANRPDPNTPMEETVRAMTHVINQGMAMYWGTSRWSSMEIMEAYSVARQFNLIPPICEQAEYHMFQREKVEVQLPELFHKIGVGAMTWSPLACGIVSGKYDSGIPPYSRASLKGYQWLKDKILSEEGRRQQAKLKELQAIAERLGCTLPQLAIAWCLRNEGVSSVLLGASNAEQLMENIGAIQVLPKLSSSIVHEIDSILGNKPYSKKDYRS
Provide a numeric answer; units are not to be included.

Answered cases to consult:
[
  {
    "compound": "C=CCc1c(C)nc(SC)nc1Nc1ccc(C(=O)O)cc1",
    "reported": -0.488
  },
  {
    "compound": "CCCc1cc(=O)oc2c(C)c(O)c(CN3CCCCC3)cc12",
    "reported": -0.00538
  },
  {
    "compound": "CCN1CCc2c(C#N)c(N3CCCCC3)nc(N3CCOCC3)c2C1",
    "reported": -0.46
  },
  {
    "compound": "O=C1CC(NCc2ccncc2)C(=O)N1c1ccc(Cl)cc1 (configuration not stated)",
    "reported": -0.464
  },
  {
    "compound": "Cc1ccc(-c2nc(CS(=O)CC(=O)NCCN(CC(C)C)CC(C)C)c(C)o2)cc1 (configuration not stated)",
    "reported": -0.538
  }
]

Reported fluorescence slope of COC(=O)CSCC(=O)Nc1cc2c(cc1C(C)=O)OCO2 : -0.452

Reported fluorescence slope of CCC(=O)Nc1ccc(-c2nnc(SCC(=O)NCC3CCCO3)n2C)cc1 (configuration not stated) : -0.5

###

Entries and their nuclei count values follow.
assay: inhibitors of E-selectin induction by TNFa, primary screen, imaging, HUVEC, immunofluorescence, MLSMR starter and 10KST1 sets (AID 487); settings: HUVEC TNFalpha-induced E-selectin immunofluorescence imaging, at 2 µM; measured here: cell number, toxicity;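 as to nuclei count: 100% = median nuclei count of all wells on the same plate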
Write the answer as a number in %, unit excluded.

Answered cases to consult:
[
  {
    "compound": "O=C(CCN1CCc2ccccc2C1)Nc1ccc2c(c1)OCO2",
    "nuclei count / %": 110
  },
  {
    "compound": "Cc1ccccc1-n1c(=O)/c(=C\\c2ccco2)s/c1=C(/C#N)C(=O)Nc1ccccc1",
    "nuclei count / %": 151
  }
]

Continue with the next compound.
Reported nuclei count of CCCCCNC(=O)C(C#N)c1nc2ccccc2nc1N1CC(C)OC(C)C1 (stereo not given) : 130

###

Entries and their inhibition values follow.
test: inhibitors of poly I:C-induced TLR3 signaling, primary screen, cell-based, poly I:C stimulus, luciferase, 10K MLSCN set (AID 602277); settings: HEK293-TLR3 RL24 IRF3 luciferase reporter, at 10 µM, stronger effect = higher value
Write the answer as a number in %, unit excluded.

[
  {
    "compound": "Cn1c2c(c(=O)n(C)c1=O)C(c1cccc(Br)c1)C1C(=O)c3ccccc3C1=N2 (stereo not given)",
    "reported": 12.5
  },
  {
    "compound": "CCN(CC)CCCNc1oc(-c2cccc(Cl)c2)nc1C#N",
    "reported": 27.9
  },
  {
    "compound": "COC(=O)c1ccc(-c2ccco2)n1Cc1nc(-c2ccc(OC)c(OC)c2)oc1C",
    "reported": -0.464
  },
  {
    "compound": "CCC(C)(C(=O)NC1CCCCC1)N(Cc1ccco1)C(=O)c1cnccn1 (stereo not given)",
    "reported": 27.6
  }
]

Continue with the next compound.
Reported inhibition of O=C(Nc1cccnc1)Nc1ccccn1 : 0.317
